molecular target: HLA-A*0201 (human); assay: competition with 125I-labelled standard peptide 941.01 for purified HLA, gel filtration; details: scale: ratio
metric.name: binding affinity ratio
Just the number.

Take a look at these entries with their results.
- binder: "GIWSKVYDPL (modifications not checked) [PAP peptide … (position 204)]"
  data.value: 0.0002
- binder: "WIKDTIVA (modifications not checked) [WIKDTIVA (PSA, position 248, 8 amino acids)]"
  data.value: 0.0001
- binder: "GAVEPDRYV (modifications not checked) [PSM peptide … (position 364)]"
  data.value: 0.0001
- binder: "VTEFMLCA (modifications not checked) [VTEFMLCA (Kallikrein, position 192, 8 amino acids)]"
  data.value: -0.0001
- binder: "FTVQAAAETL (modifications not checked) [PSM peptide … (position 737)]"
  data.value: 0.0001
- binder: "GAAVVHEIV (modifications not checked) [PSM peptide … (position 391)]"
  data.value: 0.0002

// query Look up binding affinity ratio for this binder: GITSWGSEPCA (modifications not checked) [PSA peptide … (position 221)]
// result 0.0001

// query Next binder: GAAPLILSRI (modifications not checked) [PSA peptide … (position 12)]
// result 0.0005

// query Next binder: GLWTGGKDT (modifications not checked) [Kallikrein (hK2) peptide … (position 200)]
// result 0.0002

// query Next binder: VVHYRKWI (modifications not checked) [VVHYRKWI (Kallikrein, position 246, 8 amino acids)]
// result 0.0001

// query Next binder: GAVPLIQSRIV (modifications not checked) [Kallikrein (hK2) peptide … (position 16)]
// result 0.0001
